This section presents compounds with their documented IC50 values.
Molecular target: Cytochrome P450 2D6 (Homo sapiens)
Sequence (P10635 whole entry): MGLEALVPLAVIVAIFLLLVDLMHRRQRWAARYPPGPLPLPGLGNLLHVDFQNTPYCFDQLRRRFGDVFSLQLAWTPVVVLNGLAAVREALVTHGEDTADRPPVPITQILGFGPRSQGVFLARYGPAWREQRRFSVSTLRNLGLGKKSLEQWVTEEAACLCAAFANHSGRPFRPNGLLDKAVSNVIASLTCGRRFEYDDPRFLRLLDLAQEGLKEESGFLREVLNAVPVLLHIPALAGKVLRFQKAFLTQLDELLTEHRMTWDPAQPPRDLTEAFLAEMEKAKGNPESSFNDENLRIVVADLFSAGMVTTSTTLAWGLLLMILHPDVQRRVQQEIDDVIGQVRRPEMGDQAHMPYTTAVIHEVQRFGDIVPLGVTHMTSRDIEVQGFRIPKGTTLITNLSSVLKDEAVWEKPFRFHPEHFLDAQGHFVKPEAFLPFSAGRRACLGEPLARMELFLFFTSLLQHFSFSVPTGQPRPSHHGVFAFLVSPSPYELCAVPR
Assay: Inhibition of CYP2D6 (unknown origin) using AMMC substrate after 45 mins by fluorescence assay
Type: ADME
property: IC50

compound: CN(C)Cc1ccc(/C=C/c2n[nH]c3cc([C@@H]4C[C@@]45C(=O)Nc4ccccc45)ccc23)cc1 (relative stereo)
result: 3.1 µM
//
compound: COc1ccc2c(c1)[C@]1(C[C@H]1c1ccc3c(/C=C/c4ccc(CN5CCOCC5)cc4)n[nH]c3c1)C(=O)N2 (relative stereo)
result: > 1 µM
//
compound: O=C1Nc2ccccc2[C@]12C[C@H]2c1ccc2c(/C=C/c3cccnc3)n[nH]c2c1 (relative stereo)
result: > 1 µM

----------
Assay: AUC in SCID mouse at 50 mg/kg, ip after 8 hrs by LCMS/MS method
Assay type: ADME, organism-based
Set-up: time < 8 hr, dose 50 mg/kg, route intraperitoneal
Settings: plasma
Label rule, in plain words: AUC at 8 h of 400 ng·h/mL and up is 1.0, under 400 ng·h/mL is 0.0.

molecule: CN(C)Cc1ccc(/C=C/c2n[nH]c3cc(/C=C4/C(=O)Nc5ccccc54)ccc23)cc1
group: 1.0

molecule: COc1ccc2c(c1)[C@]1(C[C@H]1c1ccc3c(/C=C/c4ccc(N5CCN(C)CC5)nc4)n[nH]c3c1)C(=O)N2 (relative stereo)
group: 1.0

molecule: CN(C)Cc1ccc(/C=C/c2n[nH]c3cc([C@@H]4C[C@@]45C(=O)Nc4ccccc45)ccc23)cc1 (relative stereo)
group: 1.0

molecule: O=C1Nc2ccccc2/C1=C/c1ccc2cn[nH]c2c1
group: 0.0

molecule: O=C1Nc2ccccc2[C@]12C[C@H]2c1ccc2c(/C=C/c3ccncc3)n[nH]c2c1 (relative stereo)
group: 1.0

molecule: O=C1Nc2ccccc2[C@]12C[C@H]2c1ccc2cn[nH]c2c1 (relative stereo)
group: 1.0

molecule: COc1ccc2c(c1)/C(=C\c1ccc3c(/C=C/c4ccc(N5CCN(C)CC5)nc4)n[nH]c3c1)C(=O)N2
group: 0.0

----------
Notes on IC50 obtained with UniProt:P10635.
property: IC50

compound: O=C1Nc2ccccc2[C@]12C[C@H]2c1ccc2c(/C=C/c3ccc(CN4CCOCC4)cc3)n[nH]c2c1 (relative stereo)
test target: UniProt:P10635
result: > 10 µM
--
compound: O=C1Nc2ccccc2/C1=C/c1ccc2cn[nH]c2c1
test target: UniProt:P10635
result: > 1 µM
--
compound: COc1ccc2c(c1)[C@]1(C[C@H]1c1ccc3c(/C=C/c4ccc(N5CCN(C)CC5)nc4)n[nH]c3c1)C(=O)N2 (relative stereo)
test target: UniProt:P10635
result: > 10 µM
--
compound: COc1ccc2c(c1)[C@]1(C[C@H]1c1ccc3c(/C=C/c4ccc(CN(C)C)cc4)n[nH]c3c1)C(=O)N2 (relative stereo)
test target: UniProt:P10635
result: > 10 µM

----------
This section presents compounds with their documented GI50 values.
System: MDA-MB-468
Assay: Cytotoxicity against human MDA-MB-468 cells after 5 days by SRB assay
Assay type: functional
Conditions: MDA-MB-468, 120 h
property: GI50 (nM)

compound: O=C1Nc2ccccc2/C1=C/c1ccc2cn[nH]c2c1
test target: MDA-MB-468
output unit: nM
numeric result: 4600
--
compound: CN(C)Cc1ccc(/C=C/c2n[nH]c3cc(/C=C4/C(=O)Nc5ccccc54)ccc23)cc1
test target: MDA-MB-468
output unit: nM
numeric result: 12
--
compound: COc1ccc2c(c1)[C@]1(C[C@H]1c1ccc3c(/C=C/c4cc(F)c(CN5CCOCC5)c(F)c4)n[nH]c3c1)C(=O)N2 (relative stereo)
test target: MDA-MB-468
output unit: nM
numeric result: 60
--
compound: CN(C)Cc1ccc(/C=C/c2n[nH]c3cc([C@@H]4C[C@@]45C(=O)Nc4ccc(Cl)cc45)ccc23)cc1 (relative stereo)
test target: MDA-MB-468
output unit: nM
numeric result: 0.06
--
compound: O=C1Nc2ccccc2[C@]12C[C@H]2c1ccc2c(/C=C/c3ccc(CN4CCCCC4)cc3)n[nH]c2c1 (relative stereo)
test target: MDA-MB-468
output unit: nM
numeric result: 500
--
compound: CN1CCN(Cc2ccc(/C=C/c3n[nH]c4cc([C@@H]5C[C@@]56C(=O)Nc5ccccc56)ccc34)cc2)CC1 (relative stereo)
test target: MDA-MB-468
output unit: nM
numeric result: 10
--
compound: CCc1ccc2c(c1)[C@]1(C[C@H]1c1ccc3c(/C=C/c4ccc(CN(C)C)cc4)n[nH]c3c1)C(=O)N2 (relative stereo)
test target: MDA-MB-468
output unit: nM
numeric result: 10
